These measurements were taken from patent US8846710B2.

- Test system: interferon (α) (IFN-α)
- assay_details: Cytokine induction in human cells: IFN-α secreted by PBMC into culture media (ELISA)
- Format: cell-based
- condition_notes: Table 10; human PBMC; lowest tested concentration inducing IFN-α over usually 20 pg/mL; median where more than one experiment; read-out: Minimum Effective Concentration (μM) IFN
property_name: minimal effective concentration (µM)
Only the number, expressed in µM, is required.

These solved cases illustrate the format of a correct answer.
> print(dat)
                           substance.smiles  units.symbol  observed.result
1  CCCc1nc2c(N)nc3cc(-c4cccnc4)ccc3c2n1CCCCNC(=O)C(C)C            µM             0.12
2  CCc1nc2c(N)nc3cc(-c4cccnc4)ccc3c2n1CC1CCN(C(=O)C(C)C)CC1            µM             0.12
3  CCOCc1nc2c(N)nc3cc(-c4cccnc4)ccc3c2n1CCCCNC(=O)C1CCCC1            µM             0.04

Now, please, on to the next compound.
Requested read-out: minimal effective concentration. Entry: CCOCc1nc2c(N)nc3cc(-c4cncc(CO)c4)ccc3c2n1CC1CCN(C(=O)C(C)C)CC1
0.04

----------
- System: tumor necrosis factor (α) (TNF-α)
- assay_details: Cytokine induction in human cells: TNF-α secreted by PBMC into culture media (ORIGEN M-Series immunoassay)
- Format: cell-based
- condition_notes: Table 12; human PBMC; median; * = below the experimental background of 40 pg/mL
property_name: Maximal Response TNF (pg/mL)
Give just the numeric value; pg/mL need not be written.

Would you please look over these solved cases?
> print(dat)
                           substance.smiles  observed.result
1          Cc1nc2c(N)nc3cccnc3c2n1CC(C)(C)O             6519
2       COCCc1nc2c(N)nc3cccnc3c2n1CC(C)(C)O             7503
3          CCOCc1nc2c(N)nc3cccnc3c2n1CC(C)C             3160
4  CC(C)(Cn1c(CO)nc2c(N)nc3cccnc3c21)NS(C)(=O)=O              170
5          Cc1nc2c(N)nc3cccnc3c2n1CC(C)(C)F             1679
6  CC(C)(Cn1c(CO)nc2c(N)nc3cccnc3c21)NC(=O)C1CCCCC1              798

Let's switch to this molecule now.
Would you mind telling me what Maximal Response TNF value was observed for CCCc1nc2c(N)nc3cccnc3c2n1CC(C)(C)O ?
5526

----------
// reported Minimum Effective Concentration IFN for each item listed
- Test system: interferon (α) (IFN-α)
- assay_details: Cytokine induction in human cells: IFN-α secreted by PBMC into culture media (ELISA)
- Format: cell-based
- condition_notes: Table 11; human PBMC; median where tested in more than one experiment
- Method: Cytokine Induction in Human Cells An in vitro human blood cell system is used to assess cytokine induction. […] Following incubation the plates are centrifuged for 10 minutes at 1000 rpm (approximately 200×g) at 4° C. […] The samples are analyzed for IFN-α by ELISA and for TNF-α by IGEN/BioVeris Assay. […] IFN-α concentration is determined with a human multi-subtype calorimetric sandwich ELISA (Catalog Number 41105) from PBL Biomedical Laboratories, Piscataway, N.J. Results are expressed in pg/mL. […]
Enter your answer as a number in µM; do not include the unit.

Take a look at these entries with their results.
> print(dat)
                           substance.smiles  observed.result
1  CC(C)CC(=O)NCCn1c(CCO)nc2c(N)nc3ccccc3c21             3.33
2  COCc1nc2c(N)nc3ccccc3c2n1CC(C)(C)NS(C)(=O)=O             0.37
3  CCOCc1nc2c(N)nc3ccccc3c2n1CC(C)(C)CNC(=O)Nc1ccccc1            0.014
4    Cc1nc2c(N)nc3ccccc3c2n1CCCCNS(C)(=O)=O             0.12
5  Nc1nc2ccccc2c2c1nc(CCO)n2CCCCNC(=O)c1cnc2ccccc2n1             0.37

Look up Minimum Effective Concentration IFN: CC(C)(CNC(=O)Nc1ccccc1)Cn1c(CCO)nc2c(N)nc3ccccc3c21
0.014

I'd like to know its Minimum Effective Concentration IFN. The compound in question is NCCCn1c(CCO)nc2c(N)nc3ccccc3c21
3.33

Which Minimum Effective Concentration IFN is listed for CCCc1nc2c(N)nc3ccccc3c2n1CCCCNC(=O)N1CCOCC1 ?
0.12

Give its Minimum Effective Concentration IFN value. Item: CCc1nc2c(N)nc3ccccc3c2n1CCNC(=O)CC(C)C
3.33

May I ask what Minimum Effective Concentration IFN has been recorded for CCOCc1nc2c(N)nc3ccccc3c2n1CC(C)(C)CS(C)(=O)=O ?
0.12

What does the data say about its Minimum Effective Concentration IFN? Entry: CCOCc1nc2c(N)nc3ccccc3c2n1CCCN
0.12

State the recorded Minimum Effective Concentration IFN for this entry: CC(C)(CNC(=O)c1ccccc1)Cn1c(CCO)nc2c(N)nc3ccccc3c21
0.12

Minimum Effective Concentration IFN for COCCc1nc2c(N)nc3ccccc3c2n1CCCCN ?
0.04
